The following compounds are listed with their measured pEC50 values.
# tgt: full length human TREX1 (Homo sapiens, UniProt Q9NSU2)
# Construct: N-terminally His-Tev tagged full length human TREX1; His-Tev (His tag with TEV protease site) (N)
# Sequence (Q9NSU2 whole entry): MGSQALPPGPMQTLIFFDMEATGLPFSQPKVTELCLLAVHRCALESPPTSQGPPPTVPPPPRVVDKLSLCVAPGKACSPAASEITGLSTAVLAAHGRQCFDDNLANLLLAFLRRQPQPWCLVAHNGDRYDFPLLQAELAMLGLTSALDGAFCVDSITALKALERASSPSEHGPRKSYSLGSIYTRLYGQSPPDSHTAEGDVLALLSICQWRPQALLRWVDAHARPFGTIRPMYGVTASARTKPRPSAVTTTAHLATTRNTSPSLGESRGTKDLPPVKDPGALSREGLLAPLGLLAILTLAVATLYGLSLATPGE
# assay_procedure: TREX1 Biochemical Assay (fluorescence assay, degradation of dsDNA substrate)
# conditions: 150 pM TREX1, 60 nM dsDNA substrate, 25 minutes at room temperature; read-out: hTREX1 EC50
pEC50: −log10 of the molar value.

1) COC(=O)c1ccc(CN(Cc2ccc(Cl)cc2Cl)C(=O)c2cccc(F)c2)cn1 : < 5.00
2) CC(=O)Nc1ccc(CN(Cc2cccc(Cl)c2Cl)C(=O)c2cccc(F)c2)cn1 : 5.00 to 6.00
3) Cc1cc(C(=O)N(Cc2cccnc2)Cc2cc(Cl)cc(Cl)c2)ccc1Br : < 5.00
4) O=C(c1ccccc1Oc1ccccc1)N(Cc1cccnc1)Cc1cc(Cl)cc(Cl)c1 : < 5.00
5) O=C(O)c1ccc(CN(Cc2cccc(Cl)c2Cl)C(=O)c2cc(F)cc(F)c2)c(O)n1 : 6.00 to 7.00
6) O=C(O)c1ccc(CN(Cc2cncc(Cl)c2Cl)C(=O)c2cc(F)cc(F)c2)cn1 : > 7.00
7) O=C(c1cccc(F)c1)N(Cc1cccnc1)Cc1cccc(Cl)c1Cl : 6.00 to 7.00

We now examine a further compound.
## Input Fill in: pEC50 of C[C@H](c1ccc(C(N)=O)cc1Cl)N(Cc1cccnc1)C(=O)c1cccc(F)c1 (single isomer, unassigned) is ___
## Output 6.00 to 7.00

###

# tgt: human TREX2 (residues M44-A279) (Homo sapiens)
# Construct: human TREX2 (residues M44-A279, expressed in E. coli); His-Tev (His tag with TEV protease site) (N)
# Sequence (Q9BQ50 44-279 isoform Q9BQ50-1): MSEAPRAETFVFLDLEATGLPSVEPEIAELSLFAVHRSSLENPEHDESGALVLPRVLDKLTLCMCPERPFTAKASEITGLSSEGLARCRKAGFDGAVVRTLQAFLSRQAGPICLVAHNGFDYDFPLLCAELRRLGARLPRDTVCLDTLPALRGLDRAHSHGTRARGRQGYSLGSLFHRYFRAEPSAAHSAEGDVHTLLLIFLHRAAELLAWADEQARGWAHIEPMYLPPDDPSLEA
# assay_procedure: TREX2 Biochemical Assay (fluorescence assay, degradation of dsDNA substrate)
# conditions: 2.5 nM TREX2, 60 nM dsDNA substrate, 25 minutes at room temperature; read-out: hTREX2 EC50
pEC50: −log10 of the molar value.
The following compounds are listed with their measured pEC50 values.

1) COC(=O)CC[C@@H](c1ccccc1Cl)N(Cc1cccnc1)C(=O)c1cc(F)cc(F)c1 : 4.00 to 5.00
2) Cc1ccc(C(=O)N(Cc2cccnc2)Cc2cc(Cl)cc(Cl)c2)c(Br)c1 : < 4.00
3) COc1cc(C(=O)N(Cc2cccnc2)Cc2ccc(Cl)cc2Cl)cc(Br)c1OC : < 4.00

We now examine a further compound.
## Input Fill in: pEC50 of O=C(c1ccc(F)c(F)c1F)N(Cc1cccnc1)Cc1ccc(Cl)cc1Cl is ___
## Output < 4.00

###

The following molecules are listed with their measured pEC50 values.
# tgt: full length human TREX1 (Homo sapiens)
# Construct: N-terminally His-Tev tagged full length human TREX1; His-Tev (His tag with TEV protease site) (N)
# assay_procedure: TREX1 Biochemical Assay (fluorescence assay, degradation of dsDNA substrate)
# conditions: 150 pM TREX1, 60 nM dsDNA substrate, 25 minutes at room temperature; read-out: hTREX1 EC50
pEC50: −log10 of the molar value.

1. O=C(c1cc(F)cc(F)c1)N(Cc1ccc(-c2cnn[nH]2)nc1)Cc1ccccc1Cl [Compound 171] : 6.00 to 7.00
2. O=C(c1cncnc1)N(Cc1cccnc1)Cc1ccc(Cl)cc1Cl [Compound 100] : < 5.00
3. O=C(c1ccc(O)c(Cl)c1)N(Cc1cccnc1)Cc1cc(Cl)cc(Cl)c1 [Compound 35] : < 5.00
4. O=C(c1ccccc1Oc1ccccc1)N(Cc1cccnc1)Cc1ccc(Cl)cc1Cl [Compound 44] : < 5.00
5. O=C(c1cccc(F)c1)N(CCc1ccccc1)Cc1cccnc1 [Compound 131] : < 5.00
6. O=C(c1ccc(O)c(F)c1)N(Cc1cccnc1)Cc1cc(Cl)cc(Cl)c1 [Compound 57] : < 5.00

## Input Recorded pEC50 for COc1cc(C(=O)N(Cc2cccnc2)Cc2cc(Cl)cc(Cl)c2)cc(Br)c1O [Compound 62] with full length human TREX1 (Homo sapiens), please?
## Output < 5.00

## Input Recorded pEC50 for O=C(c1cc(F)cc(F)c1)N(Cc1ccc(-n2cccn2)nc1)Cc1ccc(Cl)cc1Cl [Compound 175] with full length human TREX1 (Homo sapiens), please?
## Output 6.00 to 7.00

## Input Recorded pEC50 for O=C(c1cccc(F)c1)N(Cc1ccncc1)Cc1ccc(Cl)cc1Cl [Compound 97] with full length human TREX1 (Homo sapiens), please?
## Output < 5.00

## Input Recorded pEC50 for COc1cccc(CN(Cc2ccc(C(=O)O)nc2)C(=O)c2cc(F)cc(F)c2)c1C [Compound 195] with full length human TREX1 (Homo sapiens), please?
## Output > 7.00

## Input Recorded pEC50 for CNc1cc(CN(Cc2cccc(Cl)c2Cl)C(=O)c2cc(F)cc(F)c2)cnc1C(=O)O [Compound 240] with full length human TREX1 (Homo sapiens), please?
## Output > 7.00
